System Tested: KDM4C (Homo sapiens)
Construct: N-terminal GST-tagged KDM4C^2-372 was purchased from BPS Biosciences; GST (N); purchased BPS Biosciences
Sequence (Q9H3R0 2-372): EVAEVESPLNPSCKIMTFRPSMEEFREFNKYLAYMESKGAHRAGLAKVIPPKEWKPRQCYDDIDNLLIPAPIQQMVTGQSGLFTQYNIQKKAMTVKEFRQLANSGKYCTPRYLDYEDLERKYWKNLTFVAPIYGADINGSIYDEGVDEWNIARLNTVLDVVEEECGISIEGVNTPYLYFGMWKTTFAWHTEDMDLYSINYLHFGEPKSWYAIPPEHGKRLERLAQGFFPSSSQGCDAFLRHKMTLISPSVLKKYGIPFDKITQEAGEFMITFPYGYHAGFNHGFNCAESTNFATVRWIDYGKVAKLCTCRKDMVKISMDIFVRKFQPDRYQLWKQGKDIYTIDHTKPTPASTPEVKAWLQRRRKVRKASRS
Test: KDM4C Assay (SAMDI mass spectrometry demethylase assay)
Type: biochemical
Settings: N-terminal GST-tagged KDM4C 2-372; class symbols; read-out: 4C IC50
Kindly supply the reported IC50 values for the records listed here.

Solved entries:
{"Compound": "Cn1nc(Nc2cnccc2C(=O)O)cc1-c1ccccc1", "IC50": "100 to 1000 nM"}
{"Compound": "O=C(O)c1ccncc1Nc1c(-c2ccccc2)cnn1-c1ccccc1", "IC50": "10000 to 100000 nM"}
{"Compound": "Cc1nn(C2CCCNCC2)cc1Nc1cnccc1C(=O)O (single isomer, unassigned) [Compound 116]", "IC50": "100 to 1000 nM"}
{"Compound": "CN(C)CCn1cc(-c2ccccc2)c(Nc2cnccc2C(=O)O)n1", "IC50": "1 to 100 nM"}
{"Compound": "Cc1c(Nc2cnccc2C(=O)O)cnn1-c1ccccc1", "IC50": "1 to 100 nM"}
{"Compound": "Cc1c(Nc2cnccc2C(=O)O)cnn1[C@H]1CC[C@@H](N)CC1", "IC50": "1 to 100 nM"}
{"Compound": "Cc1c(Nc2cnccc2C(=O)O)cnn1Cc1ccccc1", "IC50": "1 to 100 nM"}
{"Compound": "Cn1cc(-c2ccc(F)cc2)c(Nc2cnccc2C(=O)O)n1", "IC50": "100 to 1000 nM"}
{"Compound": "Cn1ncc(-c2ccc(F)cc2)c1Nc1cnccc1C(=O)O", "IC50": "1000 to 10000 nM"}
{"Compound": "Cc1nn(-c2ccc(O)cc2)c(C)c1Nc1cnccc1C(=O)O", "IC50": "1000 to 10000 nM"}

Quick request: IC50 for each listed item, please.
1. CN(C)CCCn1ncc(-c2ccccc2)c1Nc1cnccc1C(=O)O
2. Cn1cc(-c2ccccc2)c(Nc2cnccc2C(=O)O)n1
3. O=C(O)c1ccncc1Nc1cnn(CCN2CCC(F)(F)CC2)c1-c1ccccc1
4. Cc1nn(C2CCCNCC2)cc1Nc1cnccc1C(=O)O (single isomer, unassigned) [Compound 114]
5. Cc1cn(-c2ccccc2)c(Nc2cnccc2C(=O)O)n1
6. Cc1c(Nc2cnccc2C(=O)O)nn(CCN2CCC(F)(F)CC2)c1-c1ccccc1
7. CCc1c(Nc2cnccc2C(=O)O)cnn1-c1ccccc1
8. Cc1nn(C2CCN(c3ccccc3)CC2)cc1Nc1cnccc1C(=O)O

10000 to 100000 nM
1000 to 10000 nM
100 to 1000 nM
100 to 1000 nM
100 to 1000 nM
100 to 1000 nM
1 to 100 nM
100 to 1000 nM

GET /values?readout=IC50&system=KDM4C (Homo sapiens)&item= Cc1n[nH]c(-c2ccccc2)c1Nc1cnccc1C(=O)O 1000 to 10000 nM

====

System Tested: KDM4C (Homo sapiens)
Construct: N-terminal GST-tagged KDM4C^2-372 was purchased from BPS Biosciences; GST (N); purchased BPS Biosciences
Test: KDM4C Assay (SAMDI mass spectrometry demethylase assay)
Type: biochemical
Settings: N-terminal GST-tagged KDM4C 2-372; class symbols; read-out: 4C IC50
Attribute Measured: IC50

{"Compound": "CCc1c(Nc2cnccc2C(=O)O)cnn1C1CCN(C)CC1 [Compound 123]", "System Tested": "KDM4C (Homo sapiens)", "IC50": "0.1 to 1 µM"}

Quick request: IC50 for each listed item, please.
1. Cc1nn(C2CCN(C3CCC3)CC2)cc1Nc1cnccc1C(=O)O [Compound 94]
2. Cc1c(Nc2cnccc2C(=O)O)cnn1C1CCCN(C)CC1 (stereo not drawn) [Compound 112]
3. Cn1ncc(-c2cccc(F)c2)c1Nc1cnccc1C(=O)O [Compound 10]
4. O=C(O)c1ccncc1Nc1nn(C2CCOCC2)cc1-c1ccccc1 [Compound 72]
5. CN1CCC(n2cc(Nc3cnccc3C(=O)O)c(-c3ccccc3)n2)CC1 [Compound 127]
6. Cc1nn(C2CCN(C3CN(C)C3)CC2)cc1Nc1cnccc1C(=O)O [Compound 91]
7. Cc1ccc(-n2cc(Nc3cnccc3C(=O)O)c(C)n2)cc1 [Compound 82]

1. 0.1 to 1 µM
2. 0.1 to 1 µM
3. 1 to 10 µM
4. 1 to 10 µM
5. 0.1 to 1 µM
6. 1 to 10 µM
7. 0.001 to 0.1 µM

====

System Tested: KDM4A (Homo sapiens, UniProt O75164)
Construct: N-terminal His-tagged KDM4A^1-350 was purchased from BPS Biosciences; His (N); purchased BPS Biosciences
Sequence (O75164 1-350): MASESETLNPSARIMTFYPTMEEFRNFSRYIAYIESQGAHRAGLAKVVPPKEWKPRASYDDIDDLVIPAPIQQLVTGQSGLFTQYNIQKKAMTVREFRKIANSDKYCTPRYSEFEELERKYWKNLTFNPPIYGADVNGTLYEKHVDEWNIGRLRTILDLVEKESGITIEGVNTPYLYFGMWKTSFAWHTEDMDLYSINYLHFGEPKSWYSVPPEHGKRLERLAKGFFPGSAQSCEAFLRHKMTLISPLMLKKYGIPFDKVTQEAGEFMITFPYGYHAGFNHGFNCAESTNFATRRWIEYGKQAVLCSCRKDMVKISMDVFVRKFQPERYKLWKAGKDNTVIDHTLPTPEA
Test: KDM4A Assay (SAMDI mass spectrometry demethylase assay)
Format: biochemical
Settings: N-terminal His-tagged KDM4A 1-350; class symbols; read-out: 4A IC50
Procedure: N-terminal His-tagged KDM4A^1-350 was purchased from BPS Biosciences. Peptides were synthesized by BioPeptide and all other reagents were purchased from Sigma-Aldrich at the highest level of purity possible. Assays were performed in a 50 μL volume in 384-well V-bottom polypropylene microplates (Greiner) at 25° C. […] Reactions proceeded for 120 minutes and were stopped by the addition of 5 μL of formic acid (f.c.=0.5%) using a Multidrop Combi and then analyzed by SAMDI Tech Inc. […]
Attribute Measured: IC50

Solved entries:
{"Compound": "NC1CCC(n2nc(-c3cccc(Cl)c3)cc2Nc2cnccc2C(=O)O)CC1 (stereo not drawn) [Compound 85]", "IC50": "1000 to 10000 nM"}
{"Compound": "Cc1nn(C2CCN(CC3CC3)CC2)cc1Nc1cnccc1C(=O)O [Compound 89]", "IC50": "1 to 100 nM"}
{"Compound": "COC(=O)c1ccncc1Nc1cnn(C2CCN(C(C)C)CC2)c1C [Compound 103]", "IC50": "10000 to 100000 nM"}
{"Compound": "Cc1n[nH]c(-c2ccccc2)c1Nc1cnccc1C(=O)O [Compound 55]", "IC50": "1000 to 10000 nM"}

Quick request: IC50 for each listed item, please.
1. O=C(O)c1ccncc1Nc1nn(-c2ccccc2)cc1-c1ccccc1 [Compound 42]
2. N[C@H]1CC[C@@H](n2nc(-c3ccccc3)cc2Nc2cnccc2C(=O)O)CC1 [Compound 37]
3. Cc1c(-c2ccccc2)nn(C)c1Nc1cnccc1C(=O)O [Compound 53]
4. COC(=O)c1ccncc1Nc1cn(C2CCN(C(C)C)CC2)nc1C [Compound 101]
5. Cc1nn(C2CCN(C(=O)c3ccccc3)CC2)cc1Nc1cnccc1C(=O)O [Compound 97]
6. O=C(O)c1ccncc1Nc1nn(CCN2CCC(F)(F)CC2)cc1C1CCCCC1 [Compound 57]
7. Cn1nc(-c2ccccc2)cc1Nc1cnccc1C(=O)O [Compound 6]

["100 to 1000 nM", "100 to 1000 nM", "100 to 1000 nM", "10000 to 100000 nM", "1000 to 10000 nM", "100 to 1000 nM", "100 to 1000 nM"]

Quick request: IC50 for each listed item, please.
1. Cc1nn(C2CCCNCC2)cc1Nc1cnccc1C(=O)O (single isomer, unassigned) [Compound 114]
2. Cn1nc(Nc2cnccc2C(=O)O)cc1-c1ccccc1 [Compound 5]
3. CNC(=O)c1cccc(-n2ncc(Nc3cnccc3C(=O)O)c2C)c1 [Compound 59]
4. O=C(O)c1ccncc1Nc1cc(-c2ccccc2)nn1C1CCOCC1 [Compound 23]
5. O=C(O)c1ccncc1Nc1cn(CCN2CCC(F)(F)CC2)nc1-c1ccccc1 [Compound 17]

1: 100 to 1000 nM; 2: 100 to 1000 nM; 3: 1 to 100 nM; 4: 1000 to 10000 nM; 5: 1000 to 10000 nM

Quick request: IC50 for each listed item, please.
1. Cn1cc(-c2ccccc2F)c(Nc2cnccc2C(=O)O)n1 [Compound 11]
2. Cc1nn(C2CCCNCC2)cc1Nc1cnccc1C(=O)O (single isomer, unassigned) [Compound 116]

1: 100 to 1000 nM; 2: 100 to 1000 nM

====

System Tested: KDM4C (Homo sapiens)
Construct: N-terminal GST-tagged KDM4C^2-372 was purchased from BPS Biosciences; GST (N); purchased BPS Biosciences
Test: KDM4C Assay (SAMDI mass spectrometry demethylase assay)
Format: biochemical
Settings: N-terminal GST-tagged KDM4C 2-372; class symbols; read-out: 4C IC50
Protocol: N-terminal GST-tagged KDM4C^2-372 was purchased from BPS Biosciences. Peptides were synthesized by BioPeptide and all other reagents were purchased from Sigma-Aldrich at the highest level of purity possible. Assays were performed in a 50 μL volume in 384-well V-bottom polypropylene microplates (Greiner) at 25° C. […] Reactions proceeded for 150 minutes and were stopped by the addition of 5 μL of formic acid (f.c.=0.5%) using a Multidrop Combi and then analyzed by SAMDI Tech Inc. […]
pIC50: −log10 of the molar value.
Kindly supply the reported pIC50 values for the records listed here.

Solved entries:
{"Molecule": "Cc1nn(C2CCCN(C)CC2)cc1Nc1cnccc1C(=O)O (stereo not drawn)", "Attribute Measured": "pIC50", "Measured": "6.00 to 7.00"}
{"Molecule": "Cc1c(-c2ccccc2)nn(C)c1Nc1cnccc1C(=O)O", "Attribute Measured": "pIC50", "Measured": "6.00 to 7.00"}
{"Molecule": "N[C@H]1CC[C@H](n2nc(-c3ccccc3)cc2Nc2cnccc2C(=O)O)CC1", "Attribute Measured": "pIC50", "Measured": "4.00 to 5.00"}

Quick request: pIC50 for each listed item, please.
1. O=C(O)c1ccncc1Nc1nn(-c2ccccc2)cc1-c1ccncc1
2. Cc1c(-c2ccccc2)nn(CCN2CCC(F)(F)CC2)c1Nc1cnccc1C(=O)O
3. O=C(O)c1ccncc1Nc1cc(-c2ccccc2)nn1[C@H]1CC[C@H](O)CC1

["7.00 to 9.00", "4.00 to 5.00", "6.00 to 7.00"]

Quick request: pIC50 for each listed item, please.
1. Cc1c(Nc2cnccc2C(=O)O)cnn1C1CCCN(C2CCC2)CC1 (single isomer, unassigned) [Compound 119]
2. Cc1nn(-c2ccccc2)cc1Nc1cnccc1C(=O)O
3. O=C(O)c1ccncc1Nc1nn(C2CCNCC2)cc1-c1ccccc1

1: 6.00 to 7.00; 2: 6.00 to 7.00; 3: 6.00 to 7.00
